Tested on: LOC_OS05G16824-cb004;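 also: purified Escherichia coli-expressed rice kinase domain construct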
Experiment: thermal shift delta Tm vs DMSO control; higher = stronger stabilization (binding)
Settings: 12.5 µM; protein concentration 2 µM
Short version: thermal shift delta Tm at least 0.5 °C is 1.0, less is 0.0.

Some solved entries appear below for comparison.
CCNC(=O)C#Cc1ccc2c(C(=Nc3ccc(CN(C)C)cc3)c3ccccc3)c(O)[nH]c2c1
1.0
Cn1c(=O)c(F)c(Nc2ccc(I)cc2F)c2c(=O)n(C[C@@H](O)CO)cnc21
0.0
CCn1cc(-c2ccnc3[nH]c(-c4cccc(CN(C)C)c4)cc23)c(-c2ccc(NC(=O)N(C)C)cc2)n1
0.0
O=C(O)c1ccc2c(c1)nc(Nc1cccc(Cl)c1)c1ccncc12
1.0

Please examine the following record next.
Problem: # check: thermal shift delta Tm of `COc1cc2ncnc(Oc3cccc(NC(=O)Nc4cc(C(C)(C)C(F)(F)F)on4)c3)c2cc1OC` is greater than or equal to 0.5 °C
Result: 0.0
